- methodNotes: AUC in rat p.o.
- Assay type: ADME, organism-based
- conditionContext: plasma, po
readoutLabel: AUC (µM·h)

{"inputSmiles": "COc1ccc(Br)cc1CCc1c(Cl)cccc1-c1ncc2n1CCCC2", "measValue": 2}

###

Quick record: Ki, Melanocortin receptor 4 (Homo sapiens, UniProt P32245).
readoutLabel: Ki (nM)

{"compound": "CCc1cn(C)c(-c2ccccc2CCc2cc(Br)ccc2OC)n1", "measValue": 690}
{"compound": "COc1ccc(Br)cc1CCc1c(Cl)cccc1-c1ncc2n1CCC2", "measValue": 180}
{"compound": "COc1ccc(Br)cc1CCc1c(F)cccc1-c1ncc2n1CCCC2", "measValue": 620}
{"compound": "COc1ccc(Br)cc1CCc1c(Cl)cccc1-c1ncc[nH]1", "measValue": 1500}
{"compound": "COc1ccc(Br)cc1CCc1c(Cl)cccc1-c1nccn1CC1CC1", "measValue": 2000}
{"compound": "COc1ccc(Br)cc1CCc1c(Cl)cccc1-c1ncc2n1CCCC2", "measValue": 340}
{"compound": "CCC(C)n1ccnc1-c1cccc(Cl)c1CCc1cc(Br)ccc1OC (stereo not drawn)", "measValue": 2500}
{"compound": "COc1ccc(Br)cc1CCc1c(F)cccc1-c1ncc2n1CCC2", "measValue": 320}

###

- methodNotes: Plasma clearance was determined
- Assay type: ADME, organism-based
- conditionContext: rat
readoutLabel: clearance (mL/min/kg)

{"inputSmiles": "COc1ccc(Br)cc1CCc1c(F)cccc1C1=NCCN1", "measValue": 222}

###

- methodNotes: AUC was determined
- Format: ADME
- conditionContext: plasma

{"inputSmiles": "COc1ccc(Br)cc1CCc1c(F)cccc1C1=NCCN1", "valueUnit": "µM·h", "AUC": 0.204}
